Attribution: PubChem BioAssay

Attribute: growth inhibition
Test: inhibition of 3D7 malaria parasite growth – strain 3D7 (AID 2306);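 further: 0% = DMSO wells and 100% = chloroquine plus artemisinin control wells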
Conditions: P. falciparum 3D7 erythrocytic growth, LDH absorbance, 72 h; at 2 µM; hits give high values
Lab book: enter the figure in %, no units written.

Solved cases below.
> print(dat)
                                   compound  observed.property  measured.value
1  CN(C)CCN1CCN(Cc2cccc(-c3csc(-c4nc5ccccc5[nH]4)c3)c2)CC1  growth inhibition             100
2                CCCCCc1cnc2nc(N)nc(N)c2c1C  growth inhibition              96

The record that follows has no growth inhibition shown yet.
Which growth inhibition value belongs to `Cc1ccc(NC(=O)Nc2ccc(Br)cc2)cc1OCCN(C)C` ?
84
